- System: L1210 leukemia ip in BDF1 mice, survival T/C
- METHOD NOTES: NCI In Vivo Anticancer Drug Screen. Data for tumor model L1210 Leukemia (intraperitoneal) in B6D2F1 (BDF1) mice
- EXPERIMENTAL SETUP: endpoint: mean survival time; dose: 100.0 mg/kg/injection; schedule: Q01DX009 (ip); vehicle: Klucel (hydroxypropylcellulose) (HPC); higher = longer survival
Toxic doses and inconclusive results are not listed.
READOUT NAME: T/C

Please review the entries below; each comes with its answer.
CCNc1nc(NCC)c(Cl)c(C(Cl)(Cl)Cl)n1	102 % of control
CCCCCOc1ccc(C(=O)CC(=O)OCC)cc1	98 % of control

Proceed to the following item.
[Q] Look up T/C: O=C(O)CCSCCSCCC(=O)O
[A] 95 % of control

====

- Tested on: L1210 leukemia ip in BDF1 mice, survival T/C
- METHOD NOTES: NCI In Vivo Anticancer Drug Screen. Data for tumor model L1210 Leukemia (intraperitoneal) in B6D2F1 (BDF1) mice
- EXPERIMENTAL SETUP: endpoint: mean survival time; dose: 400.0 mg/kg/injection; schedule: Q01DX001 (ip); vehicle: carboxymethylcellulose (CMC); higher = longer survival
Inconclusive results and toxic doses are left out.
The compounds listed here are annotated with their T/C.

Please review the entries below; each comes with its answer.
CN(C(=O)N(CCCl)N=O)c1ccccc1	105 % of control
Cn1c(=O)c2[nH]cnc2n(C)c1=O	96 % of control
CC(=O)CC(=O)C(F)(F)F.CC(=O)CC(=O)C(F)(F)F.CC(=O)CC(=O)C(F)(F)F.[Ru]	88 % of control
CC(=O)N1Cc2nc(N)nc(N)c2C1	104 % of control
Cc1c(Cl)cccc1-n1c(C)nc2ccccc2c1=O	102 % of control

[Q] Notebook: pull reported T/C for L1210 leukemia ip in BDF1 mice, survival T/C, entry COC1=C(NCc2ccco2)C(=O)C(OC)=C(NCc2ccco2)C1=O
[A] 96 % of control

[Q] Notebook: pull reported T/C for L1210 leukemia ip in BDF1 mice, survival T/C, entry O=[N+]([O-])c1cncn1CCN1CCOCC1
[A] 94 % of control

====

- System: L1210 leukemia ip in BDF1 mice, survival T/C
- METHOD NOTES: NCI In Vivo Anticancer Drug Screen. Data for tumor model L1210 Leukemia (intraperitoneal) in B6D2F1 (BDF1) mice
- EXPERIMENTAL SETUP: endpoint: mean survival time; dose: 400.0 mg/kg/injection; schedule: Q01DX001 (ip); vehicle: carboxymethylcellulose (CMC); higher = longer survival
Inconclusive results and toxic doses are left out.
The molecules listed here are annotated with their T/C.

Please review the entries below; each comes with its answer.
CCOC(=O)NP(=O)(Nc1ccc(C)cc1)Nc1ccc(C)cc1	98 % of control
O=C(O)c1cc(I)c(OCc2ccccc2)c(I)c1	96 % of control
Cc1ccc(S(=O)(=O)N2CC(O)C=Cc3ccccc32)cc1 (stereo not given)	110 % of control

[Q] Look up T/C: Cn1c2c(c3ccccc3c1=O)C(=O)c1ccccc1-2
[A] 91 % of control

[Q] Look up T/C: O=[N+]([O-])c1cccc(N(c2ccccc2)c2ccccc2)c1
[A] 100 % of control
